# Method Notes: logD7.4 by shake-flask method
# Assay type: physicochemical
# Measurement Conditions: 1-octanol / 0.1 M potassium phosphate buffer, 0.1 M phosphate buffer (pH 7.4), duplicate
# Protocol: The assay was conducted as reported previously. Briefly, 100 µM test solutions were prepared by diluting 10 mM stock solutions of the test compounds (baicalein and compounds 1–7) in 0.1 M potassium phosphate buffer (pH 7.4) saturated with 1-octanol. […] The standard solutions and the aqueous phase (bottom layer) of each partition solution were analyzed directly from the HPLC vials as described above in Chemical stability assay. […]

{"Compound": "O=c1cc(-c2ccccc2)oc2cc(O)c(O)c(O)c12 [Baicalein]", "logD": 2.14}

----------
# Method Notes: Mouse pharmacokinetics
# Format: in vivo, male ICR mice
# Measurement Conditions: male, ICR, mouse, iv; plasma analyte after single i.v. dose of baicalein 10 mg/kg, mice

{"Compound": "O=C(O)[C@H]1O[C@@H](Oc2cc3oc(-c4ccccc4)cc(=O)c3c(O)c2O)[C@H](O)[C@@H](O)[C@@H]1O [Baicalin]", "Unit Tag": "h", "half-life": 6.2}

----------
# Method Notes: Mouse pharmacokinetics
# Type: in vivo, male ICR mice
# Measurement Conditions: male, ICR, mouse, in vivo, po; plasma analyte after single p.o. dose of compound 2 50 mg/kg, mice
Metric: AUC(0-inf)

{"Compound": "CC(C)[C@H](NC(=O)Oc1cc2oc(-c3ccccc3)cc(=O)c2c(O)c1O)C(=O)O [Compound 2]", "Metric": "AUC(0-inf)", "Readout Value": "5820 ng·h/mL"}

----------
# Method Notes: Chemical stability in physiologically-relevant solutions
# Type: physicochemical
# Measurement Conditions: 0.1 M potassium phosphate buffer; pH 6.5 buffer, 37 °C, at 4 h vs time 0
Metric: remaining at 4 h, 10 μM (%)

{"Item Smiles": "O=c1cc(-c2ccccc2)oc2cc(O)c(O)c(O)c12", "Metric": "remaining at 4 h, 10 μM", "Unit Tag": "%", "Readout Value": 101}

----------
# Method Notes: Chemical stability in physiologically-relevant solutions
# Type: physicochemical
# Measurement Conditions: pH 7.4 buffer, 37 °C, at 4 h vs time 0
In plain terms, low remaining at 4 h, 10 μM, meaning strictly below 80%, gives Fulfilled, and everything else gives Not fulfilled.

{"Item Smiles": "O=C(O)CNC(=O)Oc1cc2oc(-c3ccccc3)cc(=O)c2c(O)c1O", "Group Label": "Fulfilled"}
{"Item Smiles": "C[C@@H](O)[C@H](NC(=O)Oc1cc2oc(-c3ccccc3)cc(=O)c2c(O)c1O)C(=O)O", "Group Label": "Fulfilled"}
{"Item Smiles": "CC(C)[C@H](NC(=O)Oc1cc2oc(-c3ccccc3)cc(=O)c2c(O)c1O)C(=O)O", "Group Label": "Fulfilled"}
{"Item Smiles": "O=C(N[C@@H](Cc1ccccc1)C(=O)O)Oc1cc2oc(-c3ccccc3)cc(=O)c2c(O)c1O", "Group Label": "Fulfilled"}
{"Item Smiles": "CC(C)C[C@H](NC(=O)Oc1cc2oc(-c3ccccc3)cc(=O)c2c(O)c1O)C(=O)O", "Group Label": "Not fulfilled"}
{"Item Smiles": "C[C@H](NC(=O)Oc1cc2oc(-c3ccccc3)cc(=O)c2c(O)c1O)C(=O)O", "Group Label": "Fulfilled"}

----------
# Method Notes: Mouse pharmacokinetics
# Type: in vivo, male ICR mice
# Measurement Conditions: male, ICR, mouse, iv; plasma analyte after single i.v. dose of compound 2 15 mg/kg, mice
Metric: half-life (h)

{"Item Smiles": "O=c1cc(-c2ccccc2)oc2cc(O)c(O)c(O)c12", "Metric": "half-life", "Unit Tag": "h", "Readout Value": 1.5}
{"Item Smiles": "O=C(O)[C@H]1O[C@@H](Oc2cc3oc(-c4ccccc4)cc(=O)c3c(O)c2O)[C@H](O)[C@@H](O)[C@@H]1O", "Metric": "half-life", "Unit Tag": "h", "Readout Value": 6.6}
